- Protocol Text: Inhibition of lanosterol 14-alpha-demethylation in hepatic microsomes from human
- Assay type: functional, Liver
Attribute Measured: Ki (nM)
Numbers only, in nM.

Query: Please report the recorded Ki for Nc1ccc(SC[C@@H]2CO[C@](CCc3ccc(Cl)cc3)(Cn3ccnc3)O2)cc1 .
Reply: 0.79

Data provenance is ChEMBL document CHEMBL1127068.
